Hi there, I'd appreciate the recorded % of steady-state BLI response relative to PGLVKSK(biotin) for every entry that follows.
ASSAYED_SYSTEM: T1, PGFVKSK(biotin) peptide (PGXVKSK(biotin), X = Phe)
T1 construct: also called Phe at P3
T1 peptide: PGFVKSK(Biotin)
MEASUREMENT_NOTES: BLI, biotinylated peptide on streptavidin biosensor
No end group written: not given here. *: point of attachment. Biotin = O=C1N[C@H]2[C@H](CS[C@H]2CCCCC(=O)*)N1

So, GID4 A252V variant (residues 116-300), purified with N-terminal His-tag (designed binder, not shown: N-terminal six-histidine tag and TEV protease recognition site from the pET21(+) construct) GVATSLLYSGSKFRGHQKSKGNSYDVEVVLQHVDTGNSYLCGYLKIKGLTEEYPTLTTFFEGEIISKKHPFLTRKWDADEDVDRKHWGKFLAFYQYAKSFNSDDFDYEELKNGDYVFMRWKEQFLVPDHTIKDISGVSFAGFYYICFQKSAASIEGYYYHRSSEWYQSLNLTHVPEHSAPIYEFR ? Its % of steady-state BLI response relative to PGLVKSK(biotin) was > 60%

So, GID4 A252V-S253T-S283F triple mutant variant (residues 116-300), purified with N-terminal His-tag (designed binder, not shown: N-terminal six-histidine tag and TEV protease recognition site from the pET21(+) construct) GVATSLLYSGSKFRGHQKSKGNSYDVEVVLQHVDTGNSYLCGYLKIKGLTEEYPTLTTFFEGEIISKKHPFLTRKWDADEDVDRKHWGKFLAFYQYAKSFNSDDFDYEELKNGDYVFMRWKEQFLVPDHTIKDISGVTFAGFYYICFQKSAASIEGYYYHRSSEWYQFLNLTHVPEHSAPIYEFR ? Its % of steady-state BLI response relative to PGLVKSK(biotin) was > 69%

So, GID4 A252V-S253T double mutant variant (residues 116-300), purified with N-terminal His-tag (designed binder, also called A252V-S253T mutant; not shown: N-terminal six-histidine tag and TEV protease recognition site from the pET21(+) construct) GVATSLLYSGSKFRGHQKSKGNSYDVEVVLQHVDTGNSYLCGYLKIKGLTEEYPTLTTFFEGEIISKKHPFLTRKWDADEDVDRKHWGKFLAFYQYAKSFNSDDFDYEELKNGDYVFMRWKEQFLVPDHTIKDISGVTFAGFYYICFQKSAASIEGYYYHRSSEWYQSLNLTHVPEHSAPIYEFR ? Its % of steady-state BLI response relative to PGLVKSK(biotin) was > 69%

So, GID4 A252V-S283F double mutant variant (residues 116-300), purified with N-terminal His-tag (designed binder, also called A252V-S283F mutant; not shown: N-terminal six-histidine tag and TEV protease recognition site from the pET21(+) construct) GVATSLLYSGSKFRGHQKSKGNSYDVEVVLQHVDTGNSYLCGYLKIKGLTEEYPTLTTFFEGEIISKKHPFLTRKWDADEDVDRKHWGKFLAFYQYAKSFNSDDFDYEELKNGDYVFMRWKEQFLVPDHTIKDISGVSFAGFYYICFQKSAASIEGYYYHRSSEWYQFLNLTHVPEHSAPIYEFR ? Its % of steady-state BLI response relative to PGLVKSK(biotin) was > 69%
